The reported measurements were obtained from PubChem BioAssay AID1159580.

- experimentalDetails: chemical genetic growth profiling, strain panel (AID 1159580);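 note: tested at 20 µM; growth read once vehicle control cultures reached saturation at 30 °C; 1 = growth at the plate median or of vehicle wells; lower values mean less growth of the strain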
- runConditions: S. cerevisiae deletion strains, growth OD, locus YKL101W, strain HSL1, hits give low values
Hit rate of the full screen: of about 5,500 compounds, about 2,000 (36%) were called active. Another 18% or so got no clear call; they are omitted. This is one part of the list.

{"compound": "CSC1=NNC(c2nn(C)cc2Cl)S1 (centres undefined)", "normalized growth": 0.142}
{"compound": "OC1(C(F)(F)F)CC(C23CC4CC(CC(C4)C2)C3)=NN1 (centres undefined)", "normalized growth": 0.716}
{"compound": "O=S(=O)(Nc1cccc(CCc2ccccn2)c1)c1cc(Cl)c(Cl)cc1Cl", "normalized growth": 0.959}
{"compound": "COc1ccc(NNC(=O)c2sc3ccccc3c2Cl)cc1", "normalized growth": 0.657}
